B1: SMAD6 (parent)
chain: SGLVRRLWRSRVVPDREEGGSGGG

- Variants of: B1
- runDescription: protein stability index of a GFP-peptide fusion (GPS, HEK-293T) (PSI 1-6); higher = more stable;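 further: lentivirally expressed fusions sorted by FACS into six bins by GFP to DsRed ratio, PSI derived from sequencing read proportions per bin multiplied by bin number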
- particulars: c terminus: a fixed tail appended
Everything with protein stability index lower than 4 is False; everything else, including exactly 4, is True.

Say whether SGLVRRLWRSRNVPDREEGGSGGG [V12N] shows protein stability index of 4 or more.
True

And then SGSVRRLWRSRVVPDREEGGSGGG [L3S] , what is it?
True

Cool, now SGLVRRLWRSRVVPDRECGGSGGG [E18C]
False

Another variant to look at: SGLVRMLWRSRVVPDREEGGSGGG [R6M]
False

Entry SGLVRRLWRSRVVPDSEEGGSGGG [R16S] please
True

Could you do the same for SGLVRRLWRSRVVPDREEGGSGGQ [G24Q] , please?
False

Another: SGLVRRLWRSRVVPDRVEGGSGGG [E17V]
False

Now this one: SKLVRRLWRSRVVPDREEGGSGGG [G2K]
False

Thanks! And SGLVRRLQRSRVVPDREEGGSGGG [W8Q] ?
True

Moving on to SGLVRRLWRSRVVPDWEEGGSGGG [R16W]
False

Do the same for SGLVRRLWRSTVVPDREEGGSGGG [R11T] please
True

Then SGLVRRLWRSRVVPDREEGGSAGG [G22A] ?
False

Similarly, SGLVRRLWRSRVVPDREDGGSGGG [E18D] ?
False

What about SGLVRCLWRSRVVPDREEGGSGGG [R6C] ?
False

Same read-out for SGLVRRLWRSRVVPDRDEGGSGGG [E17D] ?
True

Now this one: SGLVRRLWRSRVVPDREEGGEGGG [S21E]
False

Entry SGLVRRLWRSRVVPDREEGLSGGG [G20L] please
False

And what about the variant SGLVRRLWRSRVVPDREEGGDGGG [S21D] ?
True

What would you report for SGWVRRLWRSRVVPDREEGGSGGG [L3W] ?
True

Same thing, different variant: SGLVRRLWRSRVVPDRYEGGSGGG [E17Y]
False

Sourced from the supplement of paper PMC10567573
